Attribute: melting point
assay_readout: melting point

CC12CCC3C(CCC4CC=CCC43C)C1CC=C2Br (stereo unspecified) :: 76 to 77 °C
CC12CCCc3cc(N(CC4CC4)c4ccc(C(=O)O)cc4)cc(c31)CCC2 :: 234 to 235 °C
Cc1cncn1CC#CCN1CCCC1=O :: 194 to 197 °C
CC(C(=O)O)c1ccc(C2=CCCCC2)cc1 (stereo unspecified) :: 101 to 102 °C
COc1cc(N)ccc1NNC=O :: 113 to 116 °C
CCNC(=O)COC1CCN(Cc2cnc3cc(NC(=O)c4ccc(-c5ccc(F)cc5)cc4)ccc3c2)CC1 :: 228 to 230 °C
CNC(=O)NN(CC(=O)OC)c1ccccc1 :: 122 °C
Nc1nc(-n2cc(C(=O)O)c(=O)c3cc(F)c(F)c(Br)c32)c(F)cc1F :: 272 to 278 °C
CCNC(=O)c1cc(NS(=O)(=O)c2ccc(OC)cc2)ccc1Oc1cncc(Cl)c1 :: 146 to 147 °C
O=c1[nH]c(=O)n2c(c1-c1ccccc1)SC=CC2 :: 286 to 290 °C
O=C(NC(=O)c1ccccc1Cl)Nc1cc(Cl)c(OC(F)(F)C(F)Cl)cc1Cl (stereo unspecified) :: 158 to 160 °C
CC(C)(C)OC(=O)c1ncn2c1[C@@H]1CCCN1C(=O)c1c-2ccc(Cl)c1Cl :: 213 to 214 °C
CCOC(=O)c1c(NCCCN(C)C)c2ccc(C)nc2n(CC)c1=O :: 75 °C
O=[N+]([O-])c1ccc(NS(=O)(=O)C(F)(F)F)c(OC2CCCCC2)c1 :: 93.5 to 95 °C
CC(C)OP(=O)(OC(C)C)C(=CC=Cc1ccccc1)P(=O)(OC(C)C)OC(C)C :: 103 to 104 °C
CN1CCC(c2c[nH]c3ccc(Cn4cncn4)cc23)C1 (stereo unspecified) :: 59 to 61 °C
CS(=O)CC(=NC1CCCCC1)c1ccccc1O (stereo unspecified) :: 133 to 134 °C
CCN(CC)CCNC(=O)c1cc(I)cc2cc3ccccc3nc12 :: 108 to 110 °C
COc1ccc(C=O)c(O)c1O :: 116 to 117 °C
CC(C)c1cccc(CCCO)c1NC(=O)CC1c2ccccc2Oc2ccccc21 :: 218 to 219 °C
Cc1ccc(NC(=O)c2cccc([N+](=O)[O-])c2)cc1 :: 160 to 162 °C
Oc1ccc(Cl)cc1C(O)(Cc1ccccc1)c1ccccc1 (stereo unspecified) :: 128 °C
c1cc2ccc3occc3c2[nH]1 :: 141 to 144 °C
OCc1ccc(N2CCN(Cc3ccc4ccccc4n3)CC2)cc1 :: 126 to 127 °C
Cn1nc(C(F)(F)F)cc1Oc1cc(C#N)cc(-n2ccc(C(F)(F)F)n2)c1 :: 116 to 117 °C
NCCCC[C@H](O)C(=O)O :: 197 to 199 °C
CC(=O)Nc1nc2c(s1)-c1nc(-c3cc(C#CC4CCNCC4)ccc3Cl)ncc1CC2 :: 162 °C
CC(=O)OC1N=C(c2ccccc2Cl)c2nc(Cl)ccc2-n2c1n[nH]c2=O (stereo unspecified) :: 232 to 236 °C
CON=Cc1ccc2c(c1)ncn2-c1cccc(Br)c1 :: 119 to 120 °C
CCOC(=O)N1CCC(c2ccc3oc(-c4ccc(S(C)(=O)=O)cc4F)nc3c2)CC1 :: 145 to 148 °C
CC[C@H](C)[C@H](NC(=O)N(C)Cc1ccccn1)C(=O)N[C@@H](Cc1ccccc1)[C@@H](O)C[C@H](Cc1ccccc1)NC(=O)OCc1cncs1 :: 66 to 69 °C
